study-target: T1, TAF1 ZnD (Homo sapiens, UniProt P21675 1256-1303)
T1 chain: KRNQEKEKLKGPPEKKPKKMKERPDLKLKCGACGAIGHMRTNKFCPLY
assay-summary: BLI; 0.2 mM dI:dC, 5 mM Mg2+; BLI: 10 mM HEPES pH 7.9, 5 mM MgCl2, 100 mM NaCl, 10% glycerol, 0.1% ovalbumin, 0.2 mM dI:dC, 30 °C; EMSA: 10 mM HEPES pH 7.9, 5 mM MgCl2, 100 mM NaCl, 10% glycerol, 20 mM tetrasodium pyrophosphate (so in the source), 0.2 mM dI:dC, 25 °C
assay-conditions: protein: recombinant; tags: His-GB1; label: 5'-biotin (BLI); 5'-32P (EMSA); blunt
value-type: Kd (nM)

IMD (Inr, MTE, DPE of super core promoter) (dsDNA) DNA 1: GTCCTCAGTCGCGATCGAACACTCGAGCCGAGCAGACGTGCCTA DNA 2: TAGGCACGTCTGCTCGGCTCGAGTGTTCGATCGCGACTGAGGAC	503
